# Target or test system: T1, human Nectin-4 extracellular antigen hNectin-4-His (human, UniProt Q96NY8 32-349)
# T1 construct: C-terminal 8xHis tag included
# T1 sequence: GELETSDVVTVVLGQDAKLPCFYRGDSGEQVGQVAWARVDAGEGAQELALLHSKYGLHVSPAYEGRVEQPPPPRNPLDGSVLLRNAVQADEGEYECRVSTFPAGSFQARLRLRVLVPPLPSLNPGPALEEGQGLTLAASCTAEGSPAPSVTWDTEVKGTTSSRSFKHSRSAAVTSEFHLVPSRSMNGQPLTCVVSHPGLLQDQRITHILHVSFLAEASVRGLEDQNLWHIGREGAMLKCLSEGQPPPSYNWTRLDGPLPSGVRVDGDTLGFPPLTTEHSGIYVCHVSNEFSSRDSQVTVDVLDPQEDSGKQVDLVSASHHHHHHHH
# Experimental protocol: ELISA, coated hNectin-4-His
Hi there, I'd appreciate the recorded EC50 for every entry that follows.
Note: unit µg/mL is implicit; provide only the numeric part.

The reported EC50 of the binder antibody 10F4-2F11 (antibody, human IgG1, kappa, V domains shown) VH: EVQLVESGGGLVQPGGSLRLSCAASGYNFTSYDMSWVRQAPGKGLEWVSGIKTGGGSARYADSVKGRFTISRDNSKNTLYLQMNSLRAEDTAVYYCAREYSDVVDYVSVRTPLDYWGQGTLVTVSS VL: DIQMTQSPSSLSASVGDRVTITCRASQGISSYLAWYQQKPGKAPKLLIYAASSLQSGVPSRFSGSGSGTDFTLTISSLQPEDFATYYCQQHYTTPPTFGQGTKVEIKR was 0.078

The reported EC50 of the binder antibody 10F4-1H11 (antibody, human IgG1, kappa, V domains shown) VH: EVQLVESGGGLVQPGGSLRLSCAASGYTFTGFWMSWVRQAPGKGLEWVSSISPDSGTKHYADSVKGRFTISRDNSKNTLYLQMNSLRAEDTAVYYCAREYSDVVDYVSVRTPLDYWGQGTLVTVSS VL: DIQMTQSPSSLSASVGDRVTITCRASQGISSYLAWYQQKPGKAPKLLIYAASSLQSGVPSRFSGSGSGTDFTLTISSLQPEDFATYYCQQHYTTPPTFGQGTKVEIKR was 0.059

The reported EC50 of the binder antibody 10F4-1E1 (antibody, human IgG1, kappa, V domains shown) VH: EVQLVESGGGLVQPGGSLRLSCAASGDIFGNYWMSWVRQAPGKGLEWVSSIDASSGNRFYADSVKGRFTISRDNSKNTLYLQMNSLRAEDTAVYYCAREYSDVVDYVSVRTPLDYWGQGTLVTVSS VL: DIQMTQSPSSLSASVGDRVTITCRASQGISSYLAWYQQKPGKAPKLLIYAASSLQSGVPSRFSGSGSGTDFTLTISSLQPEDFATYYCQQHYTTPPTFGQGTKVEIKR was 0.067

Cited source: patent US20260144882A1
